FYI, the data here is from ChEMBL document CHEMBL5291721.

Measured AC50, listed per entry for reference.
- target under test: Adenosine receptor A2a (Homo sapiens, UniProt P29274); further: assay procedure not described here
- Sequence (P29274 whole entry): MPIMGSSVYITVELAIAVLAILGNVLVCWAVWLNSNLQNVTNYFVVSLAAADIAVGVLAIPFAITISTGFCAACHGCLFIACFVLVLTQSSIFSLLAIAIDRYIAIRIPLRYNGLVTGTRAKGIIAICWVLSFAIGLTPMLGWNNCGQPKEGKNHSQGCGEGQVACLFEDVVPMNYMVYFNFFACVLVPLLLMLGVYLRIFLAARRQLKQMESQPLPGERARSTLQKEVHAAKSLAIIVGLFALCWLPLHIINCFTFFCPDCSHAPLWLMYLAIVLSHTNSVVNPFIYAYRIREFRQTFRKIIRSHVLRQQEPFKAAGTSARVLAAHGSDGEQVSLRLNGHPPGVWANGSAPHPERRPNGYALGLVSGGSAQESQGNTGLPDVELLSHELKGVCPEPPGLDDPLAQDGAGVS

# example entries with known answers
Give its AC50 value. Item: C[N+](C)(C)CCOP(=O)([O-])OC[C@H](O)CO > 30 µM

Give its AC50 value. Item: CC(C)N(CCCCOCC(=O)O)c1cnc(-c2ccccc2)c(-c2ccccc2)n1 > 30 µM

Give its AC50 value. Item: Cc1onc(-c2c(F)cccc2Cl)c1C(=O)N[C@@H]1C(=O)N2[C@@H]1SC(C)(C)[C@@H]2C(=O)O > 30 µM

Give its AC50 value. Item: CC(C)c1cccc(C(C)C)c1O > 30 µM

Give its AC50 value. Item: CCOC(=O)c1ccc(N)cc1 > 10 µM

More entries:
Give its AC50 value. Item: C[N+]12CCC(CC1)C(OC(=O)C(O)(c1ccccc1)c1ccccc1)C2 (stereo not drawn) > 30 µM

Give its AC50 value. Item: Clc1ccc(Cn2c(CN3CCCC3)nc3ccccc32)cc1 > 30 µM

Give its AC50 value. Item: CC(=O)O[C@]1(C(C)=O)CC[C@H]2[C@@H]3C=C(Cl)C4=CC(=O)[C@@H]5C[C@@H]5[C@]4(C)[C@H]3CC[C@@]21C [CYPROTERONE ACETATE] > 30 µM

Give its AC50 value. Item: CC(Cc1cccc(C(F)(F)F)c1)NCCOC(=O)c1ccccc1 (stereo not drawn) > 30 µM

Give its AC50 value. Item: CO/N=C(\C(=O)N[C@@H]1C(=O)N2C(C(=O)O)=CCS[C@H]12)c1csc(N)n1 > 30 µM

* * *

Measured AC50, listed per entry for reference.
- target under test: Gamma-aminobutyric acid receptor subunit alpha-1 (Rattus norvegicus, UniProt P62813); further: assay procedure not described here
- Sequence (P62813 whole entry): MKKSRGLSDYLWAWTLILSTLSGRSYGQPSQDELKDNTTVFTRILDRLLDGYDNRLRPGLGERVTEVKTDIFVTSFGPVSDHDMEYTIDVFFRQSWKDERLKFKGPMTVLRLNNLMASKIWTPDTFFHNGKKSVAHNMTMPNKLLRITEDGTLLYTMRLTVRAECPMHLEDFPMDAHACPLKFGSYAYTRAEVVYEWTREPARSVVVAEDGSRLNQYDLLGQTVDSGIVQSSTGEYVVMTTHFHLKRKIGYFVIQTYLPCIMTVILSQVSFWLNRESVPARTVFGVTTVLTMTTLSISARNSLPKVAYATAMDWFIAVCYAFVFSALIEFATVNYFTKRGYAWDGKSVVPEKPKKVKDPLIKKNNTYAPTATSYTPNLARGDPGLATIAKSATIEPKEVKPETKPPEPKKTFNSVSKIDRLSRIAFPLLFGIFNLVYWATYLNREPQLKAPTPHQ
- Assay type: functional

# example entries with known answers
Give its AC50 value. Item: CC(C)(C)NCC(O)c1ccccc1Cl (stereo not given) [TULOBUTEROL] > 30 µM

Give its AC50 value. Item: NNC(=O)c1ccncc1 [ISONIAZID] > 30 µM

More entries:
Give its AC50 value. Item: Cc1cc(=O)n(-c2ccccc2)n1C [ANTIPYRINE] > 10 µM

Give its AC50 value. Item: CN(C)CCCN1c2ccccc2CCc2ccccc21 [IMIPRAMINE] > 10 µM

* * *

Measured AC50, listed per entry for reference.
- target under test: Alpha-1A adrenergic receptor (Homo sapiens, UniProt P35348); further: assay procedure not described here
- Sequence (P35348 whole entry): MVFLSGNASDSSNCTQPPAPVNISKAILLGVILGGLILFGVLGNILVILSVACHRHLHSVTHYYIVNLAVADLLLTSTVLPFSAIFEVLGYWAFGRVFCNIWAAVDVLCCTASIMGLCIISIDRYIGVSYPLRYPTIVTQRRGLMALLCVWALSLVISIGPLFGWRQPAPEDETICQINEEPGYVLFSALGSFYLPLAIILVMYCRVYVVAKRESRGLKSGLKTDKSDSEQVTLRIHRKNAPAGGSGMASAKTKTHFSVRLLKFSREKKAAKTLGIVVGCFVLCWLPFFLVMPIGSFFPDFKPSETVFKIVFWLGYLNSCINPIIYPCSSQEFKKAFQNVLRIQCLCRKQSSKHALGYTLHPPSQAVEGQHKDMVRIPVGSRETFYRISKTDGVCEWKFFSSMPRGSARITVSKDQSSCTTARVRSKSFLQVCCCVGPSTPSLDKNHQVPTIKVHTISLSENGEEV
- Type: functional, cell-based

# example entries with known answers
Give its AC50 value. Item: O=C(O)Cc1ccccc1Nc1c(Cl)cccc1Cl > 3 µM

Give its AC50 value. Item: COc1c2occc2c(OC)c2c(=O)cc(C)oc12 > 30 µM

Give its AC50 value. Item: CC(O)(CS(=O)(=O)c1ccc(F)cc1)C(=O)Nc1ccc(C#N)c(C(F)(F)F)c1 (stereo not given) [BICALUTAMIDE] > 10 µM

Give its AC50 value. Item: COC(=O)C[C@](O)(CCCC(C)(C)O)C(=O)O[C@@H]1C(OC)=C[C@]23CCCN2CCc2cc4c(cc2[C@H]13)OCO4 [OMACETAXINE MEPESUCCINATE] > 30 µM

Give its AC50 value. Item: Cc1ccsc1C(=CCCN1CCC[C@@H](C(=O)O)C1)c1sccc1C > 30 µM

Give its AC50 value. Item: CC(C)(C)NC(=O)N[C@H](C(=O)N1C[C@H]2[C@@H]([C@H]1C(=O)NC(CC1CCC1)C(=O)C(N)=O)C2(C)C)C(C)(C)C (stereo not given in full) > 30 µM

Give its AC50 value. Item: CC(O)(P(=O)(O)O)P(=O)(O)O > 30 µM

Give its AC50 value. Item: CC1(C)S[C@@H]2[C@H](/N=C/N3CCCCCC3)C(=O)N2[C@H]1C(=O)O > 30 µM

Give its AC50 value. Item: CC1(C)O[C@@H]2C[C@H]3[C@@H]4C[C@H](F)C5=CC(=O)C=C[C@]5(C)[C@@]4(F)[C@@H](O)C[C@]3(C)[C@]2(C(=O)CO)O1 [FLUOCINOLONE ACETONIDE] > 30 µM

Give its AC50 value. Item: Cc1cn([C@H]2O[C@@H](CO)[C@H](O)[C@H]2F)c(=O)[nH]c1=O > 30 µM

More entries:
Give its AC50 value. Item: C[C@H]1O[C@@H](O[C@H]2CC[C@@]3(C)[C@H](CC[C@@H]4[C@@H]3C[C@@H](O)[C@]3(C)[C@@H](C5=CC(=O)OC5)CC[C@]43O)C2)C[C@H](O)[C@@H]1O[C@H]1C[C@H](O)[C@H](O[C@H]2C[C@H](O)[C@H](O[C@@H]3O[C@H](CO)[C@@H](O)[C@H](O)[C@H]3O)[C@@H](C)O2)[C@@H](C)O1 [DESLANOSIDE] > 30 µM

Give its AC50 value. Item: CC(OCCN1CCCCCC1)(c1ccccc1)c1ccc(Cl)cc1 (stereo not given) 28.1 µM

Give its AC50 value. Item: C[N+](C)(C)CCOC(=O)CCC(=O)OCC[N+](C)(C)C 0.667 µM

Give its AC50 value. Item: Cc1cc(=O)oc2cc(O)ccc12 > 30 µM

Give its AC50 value. Item: Cc1cc(=O)[nH]c(=S)[nH]1 > 30 µM
